# Tested on: Escherichia coli TOP10
# PROTOCOL_DETAILS: shrunken log2 fold change of peptide-encoding DNA abundance (4.5 h post-induction vs induction); higher = less antimicrobial activity (less host growth inhibition)
# CONDITION_SET: time post-induction: 4.5 h; library: site-saturation at positions 5, 18, 19, 20
Reported shrunken log2 fold change values for a set of sequences
Quick one: just the number, no unit, thanks!

Before answering, review these 6 worked examples.
RRIRVRPPRLPRPRPRPGYEPRP : 0.232
RRIRQRPPRLPRPRPRPFHAPRP : -0.117
RRIRDRPPRLPRPRPRPDLIPRP : 0.126
RRIRWRPPRLPRPRPRPTPGPRP : 0.572
RRIRYRPPRLPRPRPRPDYLPRP : -1.57
RRIRMRPPRLPRPRPRPCCCPRP : 0.0604

Name the reported shrunken log2 fold change value associated with the sequence `RRIRSRPPRLPRPRPRPGITPRP`
-0.151

Name the reported shrunken log2 fold change value associated with the sequence `RRIRGRPPRLPRPRPRPYEYPRP`
0.127

* * *

Reported shrunken log2 fold change values for a set of sequences
# System: Escherichia coli TOP10
# PROTOCOL_DETAILS: shrunken log2 fold change of peptide-encoding DNA abundance (4.5 h post-induction vs induction); higher = less antimicrobial activity (less host growth inhibition)
# CONDITION_SET: time post-induction: 4.5 h; library: site-saturation at positions 5, 18, 19, 20
Quick one: just the number, no unit, thanks!

Before answering, review these 2 worked examples.
RRIRNRPPRLPRPRPRPPWFPRP : 0.349
RRIRNRPPRLPRPRPRPLDCPRP : -0.00858

Name the reported shrunken log2 fold change value associated with the sequence `RRIRFRPPRLPRPRPRPPYHPRP`
-0.454

Name the reported shrunken log2 fold change value associated with the sequence `RRIRVRPPRLPRPRPRPGQDPRP`
-0.41

Name the reported shrunken log2 fold change value associated with the sequence `RRIRGRPPRLPRPRPRPDINPRP`
1.68

Name the reported shrunken log2 fold change value associated with the sequence `RRIRYRPPRLPRPRPRPDWGPRP`
-0.0597

Name the reported shrunken log2 fold change value associated with the sequence `RRIRHRPPRLPRPRPRPLMLPRP`
-0.0972

Name the reported shrunken log2 fold change value associated with the sequence `RRIRVRPPRLPRPRPRPQVAPRP`
-0.136

Name the reported shrunken log2 fold change value associated with the sequence `RRIRERPPRLPRPRPRPGVHPRP`
-0.139

Name the reported shrunken log2 fold change value associated with the sequence `RRIRDRPPRLPRPRPRPLQSPRP`
-0.015

Name the reported shrunken log2 fold change value associated with the sequence `RRIRKRPPRLPRPRPRPTMQPRP`
0.626

Name the reported shrunken log2 fold change value associated with the sequence `RRIRKRPPRLPRPRPRPCAHPRP`
0.0754

Name the reported shrunken log2 fold change value associated with the sequence `RRIRKRPPRLPRPRPRPFIHPRP`
-0.0282

* * *

# Test system: Escherichia coli TOP10
# PROTOCOL_DETAILS: shrunken log2 fold change of peptide-encoding DNA abundance (4.5 h post-induction vs induction); higher = less antimicrobial activity (less host growth inhibition)
# CONDITION_SET: time post-induction: 4.5 h; library: site-saturation at positions 5, 18, 19, 20
Reported shrunken log2 fold change values for a set of sequences
Quick one: just the number, no unit, thanks!

Before answering, review these 8 worked examples.
RRIRYRPPRLPRPRPRPIYYPRP : -0.461
RRIRFRPPRLPRPRPRPIAYPRP : -0.156
RRIRFRPPRLPRPRPRPKDPPRP : 0.216
RRIRNRPPRLPRPRPRPTHCPRP : 0.085
RRIRQRPPRLPRPRPRPTPEPRP : 0.0617
RRIRNRPPRLPRPRPRPREQPRP : -0.00697
RRIRWRPPRLPRPRPRPNCEPRP : 0.0915
RRIRHRPPRLPRPRPRPMQIPRP : 0.093

Request: shrunken log2 fold change, test system Escherichia coli TOP10, entry `RRIRVRPPRLPRPRPRPDQEPRP`
-0.00136

Request: shrunken log2 fold change, test system Escherichia coli TOP10, entry `RRIRRRPPRLPRPRPRPSMWPRP`
0.168

Request: shrunken log2 fold change, test system Escherichia coli TOP10, entry `RRIRVRPPRLPRPRPRPNTAPRP`
-0.147

Request: shrunken log2 fold change, test system Escherichia coli TOP10, entry `RRIRHRPPRLPRPRPRPEGVPRP`
0.0659

Request: shrunken log2 fold change, test system Escherichia coli TOP10, entry `RRIRDRPPRLPRPRPRPTMDPRP`
-0.0444

Request: shrunken log2 fold change, test system Escherichia coli TOP10, entry `RRIRDRPPRLPRPRPRPKQQPRP`
-0.053

Request: shrunken log2 fold change, test system Escherichia coli TOP10, entry `RRIRERPPRLPRPRPRPLLTPRP`
-0.116

Request: shrunken log2 fold change, test system Escherichia coli TOP10, entry `RRIRKRPPRLPRPRPRPKIAPRP`
0.35

Request: shrunken log2 fold change, test system Escherichia coli TOP10, entry `RRIRHRPPRLPRPRPRPSHSPRP`
-0.577

Request: shrunken log2 fold change, test system Escherichia coli TOP10, entry `RRIRRRPPRLPRPRPRPNGAPRP`
-0.151

* * *

# System: Escherichia coli TOP10
# PROTOCOL_DETAILS: shrunken log2 fold change of peptide-encoding DNA abundance (4.5 h post-induction vs induction); higher = less antimicrobial activity (less host growth inhibition)
# CONDITION_SET: time post-induction: 4.5 h; library: site-saturation at positions 5, 18, 19, 20
Reported shrunken log2 fold change values for a set of sequences
Quick one: just the number, no unit, thanks!

Before answering, review these 3 worked examples.
RRIRARPPRLPRPRPRPHTKPRP : 0.0902
RRIRCRPPRLPRPRPRPMKRPRP : -0.176
RRIRTRPPRLPRPRPRPNNQPRP : -0.665

Request: shrunken log2 fold change, test system Escherichia coli TOP10, entry `RRIRLRPPRLPRPRPRPTALPRP`
-0.134

Request: shrunken log2 fold change, test system Escherichia coli TOP10, entry `RRIRHRPPRLPRPRPRPLFSPRP`
-0.888

Request: shrunken log2 fold change, test system Escherichia coli TOP10, entry `RRIRTRPPRLPRPRPRPDHYPRP`
-0.66

Request: shrunken log2 fold change, test system Escherichia coli TOP10, entry `RRIRDRPPRLPRPRPRPTNVPRP`
-0.138

* * *

Reported shrunken log2 fold change values for a set of sequences
# Test system: Escherichia coli TOP10
# PROTOCOL_DETAILS: shrunken log2 fold change of peptide-encoding DNA abundance (4.5 h post-induction vs induction); higher = less antimicrobial activity (less host growth inhibition)
# CONDITION_SET: time post-induction: 4.5 h; library: site-saturation at positions 5, 18, 19, 20
Quick one: just the number, no unit, thanks!

Before answering, review these 4 worked examples.
RRIRSRPPRLPRPRPRPEGNPRP : -0.0126
RRIRQRPPRLPRPRPRPCIGPRP : -0.204
RRIRCRPPRLPRPRPRPTDHPRP : -0.257
RRIRKRPPRLPRPRPRPFSNPRP : -0.411

Name the reported shrunken log2 fold change value associated with the sequence `RRIRWRPPRLPRPRPRPYQHPRP`
-0.692

Name the reported shrunken log2 fold change value associated with the sequence `RRIRMRPPRLPRPRPRPPWIPRP`
0.248

* * *

# System: Escherichia coli TOP10
# PROTOCOL_DETAILS: shrunken log2 fold change of peptide-encoding DNA abundance (4.5 h post-induction vs induction); higher = less antimicrobial activity (less host growth inhibition)
# CONDITION_SET: time post-induction: 4.5 h; library: site-saturation at positions 5, 18, 19, 20
Give rule met when the value for shrunken log2 fold change is at least -0.001. Give rule not met when it is less.

RRIRWRPPRLPRPRPRPTCWPRP : rule met
RRIRHRPPRLPRPRPRPDEYPRP : rule not met
RRIRLRPPRLPRPRPRPCENPRP : rule met
RRIRYRPPRLPRPRPRPRNEPRP : rule not met
RRIRSRPPRLPRPRPRPNAQPRP : rule met

In plain terms: is recorded shrunken log2 fold change at least -0.001 for `RRIRVRPPRLPRPRPRPYTDPRP` ?
rule not met

In plain terms: is recorded shrunken log2 fold change at least -0.001 for `RRIRGRPPRLPRPRPRPKHNPRP` ?
rule met

In plain terms: is recorded shrunken log2 fold change at least -0.001 for `RRIRVRPPRLPRPRPRPPVSPRP` ?
rule met

In plain terms: is recorded shrunken log2 fold change at least -0.001 for `RRIRERPPRLPRPRPRPWPWPRP` ?
rule not met

In plain terms: is recorded shrunken log2 fold change at least -0.001 for `RRIRARPPRLPRPRPRPVSGPRP` ?
rule met

* * *

# System: Escherichia coli TOP10;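 note: peptides expressed intracellularly from a pBAD plasmid library in pooled LB shake-flask culture, induced with 0.3% L-arabinose, DNA abundance read by NGS, three biological replicates, DESeq2 with apeglm shrinkage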
# PROTOCOL_DETAILS: shrunken log2 fold change of peptide-encoding DNA abundance (4.5 h post-induction vs induction); higher = less antimicrobial activity (less host growth inhibition)
# CONDITION_SET: time post-induction: 4.5 h; library: site-saturation at positions 5, 18, 19, 20
Give met when the value for shrunken log2 fold change is at least 0.2. Give not met when it is less.

RRIRWRPPRLPRPRPRPCVCPRP : met
RRIRGRPPRLPRPRPRPCMAPRP : met
RRIRMRPPRLPRPRPRPILRPRP : not met
RRIRMRPPRLPRPRPRPQVFPRP : met
RRIRFRPPRLPRPRPRPIPWPRP : not met

In plain terms: is recorded shrunken log2 fold change at least 0.2 for `RRIRIRPPRLPRPRPRPRVRPRP` ?
not met

In plain terms: is recorded shrunken log2 fold change at least 0.2 for `RRIRSRPPRLPRPRPRPWRNPRP` ?
not met

In plain terms: is recorded shrunken log2 fold change at least 0.2 for `RRIRYRPPRLPRPRPRPQCMPRP` ?
not met

In plain terms: is recorded shrunken log2 fold change at least 0.2 for `RRIRVRPPRLPRPRPRPYCEPRP` ?
not met

In plain terms: is recorded shrunken log2 fold change at least 0.2 for `RRIRQRPPRLPRPRPRPVEAPRP` ?
met

In plain terms: is recorded shrunken log2 fold change at least 0.2 for `RRIRPRPPRLPRPRPRPGCMPRP` ?
not met

In plain terms: is recorded shrunken log2 fold change at least 0.2 for `RRIRYRPPRLPRPRPRPIHPPRP` ?
not met

In plain terms: is recorded shrunken log2 fold change at least 0.2 for `RRIRNRPPRLPRPRPRPNPEPRP` ?
not met

In plain terms: is recorded shrunken log2 fold change at least 0.2 for `RRIRQRPPRLPRPRPRPCRHPRP` ?
not met

In plain terms: is recorded shrunken log2 fold change at least 0.2 for `RRIRCRPPRLPRPRPRPWIPPRP` ?
not met

In plain terms: is recorded shrunken log2 fold change at least 0.2 for `RRIRDRPPRLPRPRPRPNQYPRP` ?
not met

In plain terms: is recorded shrunken log2 fold change at least 0.2 for `RRIRNRPPRLPRPRPRPYKNPRP` ?
not met

In plain terms: is recorded shrunken log2 fold change at least 0.2 for `RRIRSRPPRLPRPRPRPTLAPRP` ?
met

In plain terms: is recorded shrunken log2 fold change at least 0.2 for `RRIRRRPPRLPRPRPRPMLFPRP` ?
met

In plain terms: is recorded shrunken log2 fold change at least 0.2 for `RRIRSRPPRLPRPRPRPIFMPRP` ?
not met
